biological target: Voltage-gated inwardly rectifying potassium channel KCNH2 (Homo sapiens); assay: qHTS Assay for Small Molecule Inhibitors of the Human hERG Channel Activity (AID 588834); settings: U2OS BacMam hERG, FluxOR thallium flux fluorescence; series mostly up to 46.1 µM;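 note: lower thallium flux fluorescence means stronger hERG block; nearly all actives have a fitted effect of over 50% in size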
Inconclusive results are not listed. Activity calls are given as the source filed them. Calls come from the whole dose curve; as a rule, active = well fitted inhibition curve with a large enough effect; inconclusive = small, poorly fitted or top-dose-only effect; inactive = flat fitted curve, though single readings scatter.
In this exercise, the only acceptable responses are 1 (yes) (active), 0 (no) (inactive)

Exam item: Which outcome did this test record for the molecule S=C=S ?
Marked response: 0 (no)

Exam item: Which outcome did this test record for the molecule ClC=C(Cl)Cl ?
Marked response: 0 (no)

Exam item: Which outcome did this test record for the molecule O=C(NCNC(=O)NC1C(=O)NC(=O)N1CO)NC1C(=O)NC(=O)N1CO (centres undefined) ?
Marked response: 0 (no)

Exam item: Which outcome did this test record for the molecule CCN(CC)CCO[C@H]1CC[C@@]2(C)C(=CC[C@@H]3[C@@H]2CC[C@]2(C)C(=O)CC[C@@H]32)C1 ?
Marked response: 0 (no)

Exam item: Which outcome did this test record for the molecule CC(N)[C@H](O)c1ccc(O)c(O)c1 (some centres undefined) ?
Marked response: 0 (no)

Exam item: Which outcome did this test record for the molecule NC(Cc1cc(O)c(O)cc1O)C(=O)O (centres undefined) ?
Marked response: 0 (no)

Exam item: Which outcome did this test record for the molecule CC(=O)O[C@H]1CC[C@@]2(C)C(=CC[C@@H]3[C@@H]2CC[C@]2(C)C(=O)CC[C@@H]32)C1 ?
Marked response: 0 (no)

Exam item: Which outcome did this test record for the molecule CC(C)NP(=O)(NC(C)C)OP(=O)(NC(C)C)NC(C)C ?
Marked response: 0 (no)

Exam item: Which outcome did this test record for the molecule O=C/C=C/c1ccccc1 ?
Marked response: 0 (no)

Exam item: Which outcome did this test record for the molecule NC(=O)CI ?
Marked response: 0 (no)

Exam item: Which outcome did this test record for the molecule CNC(C)C(O)c1ccc(O)cc1 (centres undefined) ?
Marked response: 0 (no)

Exam item: Which outcome did this test record for the molecule [H+].[H+].[Hg+2].[O-]B([O-])[O-].[c-]1ccccc1 ?
Marked response: 1 (yes)

Exam item: Which outcome did this test record for the molecule O=[N+]([O-])C(Br)(CO)CO ?
Marked response: 0 (no)

Exam item: Which outcome did this test record for the molecule CCCCCl ?
Marked response: 0 (no)

Exam item: Which outcome did this test record for the molecule O=C(CCl)c1ccc(Oc2ccc(C(=O)CCl)cc2)cc1 ?
Marked response: 0 (no)

Exam item: Which outcome did this test record for the molecule C[CH2][Hg][S]c1ccccc1C(=O)O ?
Marked response: 0 (no)

Exam item: Which outcome did this test record for the molecule O=[N+]([O-])c1ccccc1 ?
Marked response: 0 (no)

Exam item: Which outcome did this test record for the molecule CCCC(C)(COC(N)=O)COC(=O)NC1CC1 (centres undefined) ?
Marked response: 0 (no)

Exam item: Which outcome did this test record for the molecule CCCCNCC(O)c1ccc(O)cc1 (centres undefined) ?
Marked response: 0 (no)

Exam item: Which outcome did this test record for the molecule CCCn1c(=O)c2[nH]c(C3CCCC3)nc2n(CCCOC(=O)c2ccc(S(=O)(=O)F)cc2)c1=O ?
Marked response: 1 (yes)

Exam item: Which outcome did this test record for the molecule F/C(COc1ccc2c(c1)[nH]c1ccccc12)=C1/CN2CCC1CC2 ?
Marked response: 1 (yes)

Exam item: Which outcome did this test record for the molecule CN1CCCC(=C(c2cccs2)c2cccs2)C1 ?
Marked response: 1 (yes)

Exam item: Which outcome did this test record for the molecule CCOC(=O)/C=C(C)/C=C/C[C@@H](C)CCCC(C)C ?
Marked response: 0 (no)

Exam item: Which outcome did this test record for the molecule Oc1cc(Cl)c(Cl)cc1Cl ?
Marked response: 0 (no)
